tgt: Chitinase (Ostrinia furnacalis)
Sequence (Q4AE59 whole entry, the tested form may be a part): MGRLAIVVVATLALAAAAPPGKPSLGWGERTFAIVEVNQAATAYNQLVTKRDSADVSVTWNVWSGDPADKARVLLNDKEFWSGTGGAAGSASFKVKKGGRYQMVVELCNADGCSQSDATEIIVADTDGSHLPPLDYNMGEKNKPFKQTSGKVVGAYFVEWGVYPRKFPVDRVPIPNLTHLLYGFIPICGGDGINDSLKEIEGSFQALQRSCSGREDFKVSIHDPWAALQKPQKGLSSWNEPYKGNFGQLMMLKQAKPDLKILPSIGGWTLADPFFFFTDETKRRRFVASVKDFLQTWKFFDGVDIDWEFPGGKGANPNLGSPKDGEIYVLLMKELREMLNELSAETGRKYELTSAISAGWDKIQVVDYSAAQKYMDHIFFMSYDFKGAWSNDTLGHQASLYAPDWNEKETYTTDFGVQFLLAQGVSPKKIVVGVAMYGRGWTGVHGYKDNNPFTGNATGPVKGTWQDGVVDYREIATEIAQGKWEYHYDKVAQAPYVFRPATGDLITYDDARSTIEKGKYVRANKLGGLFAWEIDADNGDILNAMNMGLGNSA
protocol description: Binding affinity to Ostrinia furnacalis chitinase h catalytic domain overexpressed in Pichia pastoris by isothermal titration calorimetry
result type: Kd (nM)
One number for each entry, in nM.

So what does the record say about Kd for Cc1cccn2c(=O)c3cc(C(=O)NCc4cccnc4)c(=N)n(CC4CCCO4)c3nc12 (stereo unspecified) ?
85

---

tgt: Acidic mammalian chitinase (Homo sapiens, UniProt Q9BZP6)
Sequence (Q9BZP6 22-476 limits assumed): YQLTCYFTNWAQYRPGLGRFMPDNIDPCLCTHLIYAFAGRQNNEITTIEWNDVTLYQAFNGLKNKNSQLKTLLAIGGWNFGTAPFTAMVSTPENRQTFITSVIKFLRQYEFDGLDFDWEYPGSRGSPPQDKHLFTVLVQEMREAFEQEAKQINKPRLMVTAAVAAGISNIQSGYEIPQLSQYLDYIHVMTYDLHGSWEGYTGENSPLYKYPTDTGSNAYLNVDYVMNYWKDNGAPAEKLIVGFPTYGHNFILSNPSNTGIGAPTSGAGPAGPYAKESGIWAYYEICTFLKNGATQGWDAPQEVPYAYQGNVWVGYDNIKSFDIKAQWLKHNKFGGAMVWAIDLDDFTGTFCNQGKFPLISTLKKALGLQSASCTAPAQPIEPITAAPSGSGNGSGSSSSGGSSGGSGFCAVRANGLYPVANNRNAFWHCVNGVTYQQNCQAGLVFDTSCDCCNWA
protocol description: Inhibition of human acidic mammalian chitinase catalytic domain overexpressed in Pichia pastoris at 10 uM using 4MU-(GlcNAc)2 as substrate after 30 mins by fluorescence based microplate reader analysis
Activity calls are given as the source filed them. The calls are words filed in the database; no cut-off is given here.
result type: inhibition

Cc1cccn2c(=O)c3cc(C(=O)NCc4cccnc4)c(=N)n(Cc4ccco4)c3nc12    Active
Cc1cccn2c(=O)c3cc(C(=O)NCc4cccnc4)c(=N)n(CC4CCCO4)c3nc12 (stereo not drawn)    Active
Cc1ccc2nc3c(cc(C(=O)N[C@H](C)c4ccccc4)c(=N)n3C[C@H]3CCCO3)c(=O)n2c1    Active

---

tgt: UniProt:Q91XA9
Sequence (Q91XA9 whole entry): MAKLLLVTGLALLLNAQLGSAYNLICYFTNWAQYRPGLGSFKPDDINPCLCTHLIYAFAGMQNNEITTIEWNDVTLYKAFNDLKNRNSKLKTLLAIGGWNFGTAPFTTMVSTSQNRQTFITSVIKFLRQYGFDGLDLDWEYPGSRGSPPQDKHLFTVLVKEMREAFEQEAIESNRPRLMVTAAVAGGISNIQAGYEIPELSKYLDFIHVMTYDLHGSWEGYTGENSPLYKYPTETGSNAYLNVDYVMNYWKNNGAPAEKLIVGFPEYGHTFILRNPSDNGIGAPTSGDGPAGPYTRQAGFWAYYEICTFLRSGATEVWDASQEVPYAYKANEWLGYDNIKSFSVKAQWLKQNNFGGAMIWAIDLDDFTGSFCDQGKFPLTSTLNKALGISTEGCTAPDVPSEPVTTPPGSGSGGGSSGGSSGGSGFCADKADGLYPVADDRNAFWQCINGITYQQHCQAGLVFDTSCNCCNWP
result type: Ki (nM)
One number for each entry, in nM.

# lookup: Ki of Cc1cccn2c(=O)c3cc(C(=O)NCc4cccnc4)c(=N)n(CC4CCCO4)c3nc12 (stereo unspecified)
1380

---

tgt: Chitinase (Ostrinia furnacalis) (UniProt Q4AE59)
Sequence (Q4AE59 as listed by the source): as the sequence (Q4AE59 whole entry, the tested form may be a part) above
protocol description: Inhibition of Ostrinia furnacalis chitinase h catalytic domain overexpressed in Pichia pastoris at 1 uM using 4MU-(GlcNAc)2 as substrate after 30 mins by fluorescence based microplate reader analysis
Active and inactive are the calls of the source. The rule behind the calls is not given here.
Please reply with one of these outcomes: active, inactive

Below are worked cases with known answers.
COCCCn1c(=N)c(C(=O)NCc2cccnc2)cc2c(=O)n3ccccc3nc21    inactive
Cc1cccn2c(=O)c3cc(C(=O)NCc4cccnc4)c(=N)n(CC4CCCO4)c3nc12 (stereo not given)    active
C=CCn1c(=N)c(C(=O)N2CCN(C)CC2)cc2c(=O)n3cccc(C)c3nc21    inactive
COCCCn1c(=N)c(C(=O)NCc2ccc(F)cc2)cc2c(=O)n3ccccc3nc21    inactive
COCCCn1c(=N)c(-c2nc3ccccc3s2)cc2c(=O)n3ccccc3nc21    inactive

Query: recorded result category for N=c1c(C(=O)NCc2cccnc2)cc2c(=O)n3ccccc3nc2n1Cc1ccccc1 in this test
active

Moving on to Cc1ccc2nc3c(cc(C(=O)N[C@H](C)c4ccccc4)c(=N)n3C[C@H]3CCCO3)c(=O)n2c1
active

Continue with Cc1cccn2c(=O)c3cc(C(=O)N[C@H](C)c4ccccc4)c(=N)n(C[C@H]4CCCO4)c3nc12
active

For Cc1cccn2c(=O)c3cc(C#N)c(=N)n(Cc4ccccc4)c3nc12 then?
inactive

And for CCOC(=O)c1cc2c(=O)n3ccccc3nc2n(Cc2ccco2)c1=N ?
inactive

Okay, and COC(=O)c1cc2c(=O)n3ccccc3nc2n(Cc2cccnc2)c1=N ?
inactive

// next record Cc1cccn2c(=O)c3cc(C(=O)NCc4cccnc4)c(=N)n(Cc4ccco4)c3nc12
active

What about COCCCn1c(=N)c(C(=O)N[C@@H](C)c2ccccc2)cc2c(=O)n3ccccc3nc21 ?
active

And Cc1cccn2c(=O)c3cc(C(=O)NCc4cccnc4)c(=N)n(Cc4ccc(F)cc4)c3nc12 ?
active

# iterate: Cc1ccc2nc3c(cc(C(=O)NCc4cccnc4)c(=N)n3C[C@H]3CCCO3)c(=O)n2c1
active

Repeat with COCCn1c(=N)c(C(=O)NCCN2CCCCC2)cc2c(=O)n3ccccc3nc21
inactive

Next molecule: Cc1cccn2c(=O)c3cc(C#N)c(=N)n(Cc4cccnc4)c3nc12
inactive

Try this molecule next: C[C@@H](NC(=O)c1cc2c(=O)n3ccccc3nc2n(C[C@H]2CCCO2)c1=N)c1ccccc1
active

Cool, now N=c1c(C(=O)NC2CCCCC2)cc2c(=O)n3ccccc3nc2n1Cc1cccnc1
inactive

Consider next the molecule CNC(=O)c1cc2c(=O)n3cc(C)ccc3nc2n(Cc2cccnc2)c1=N in the same way.
inactive

---

tgt: Chitotriosidase-1 (Homo sapiens, UniProt Q13231)
Sequence (Q13231 22-466 limits assumed): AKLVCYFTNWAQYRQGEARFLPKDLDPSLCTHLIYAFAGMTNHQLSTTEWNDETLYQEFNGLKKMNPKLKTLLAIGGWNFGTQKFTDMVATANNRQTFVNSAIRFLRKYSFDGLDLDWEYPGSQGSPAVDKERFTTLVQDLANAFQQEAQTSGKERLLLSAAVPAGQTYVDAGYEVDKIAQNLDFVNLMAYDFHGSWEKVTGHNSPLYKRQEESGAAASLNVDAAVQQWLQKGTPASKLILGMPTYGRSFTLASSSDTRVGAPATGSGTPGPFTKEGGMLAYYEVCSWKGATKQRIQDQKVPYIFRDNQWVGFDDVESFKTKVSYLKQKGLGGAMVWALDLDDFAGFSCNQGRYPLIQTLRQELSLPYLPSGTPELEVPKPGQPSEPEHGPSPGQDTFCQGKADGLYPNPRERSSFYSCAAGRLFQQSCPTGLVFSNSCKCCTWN
protocol description: Inhibition of human CHIT1 catalytic domain overexpressed in Pichia pastoris at 10 uM using 4MU-(GlcNAc)2 as substrate after 30 mins by fluorescence based microplate reader analysis
Activity calls are given as the source filed them. The calls are words filed in the database; no cut-off is given here.
result type: inhibition

N=c1c(C(=O)NCc2cccnc2)cc2c(=O)n3ccccc3nc2n1Cc1ccccc1    Active
Cc1cccn2c(=O)c3cc(C#N)c(=N)n(Cc4cccnc4)c3nc12    inactive
Cc1ccc2nc3c(cc(C(=O)NCc4cccnc4)c(=N)n3C[C@H]3CCCO3)c(=O)n2c1    Active
Cc1cccn2c(=O)c3cc(C(=O)NCc4cccnc4)c(=N)n(Cc4ccco4)c3nc12    Active
C[C@@H](NC(=O)c1cc2c(=O)n3ccccc3nc2n(C[C@H]2CCCO2)c1=N)c1ccccc1    Active

For each entry beneath this line, provide reported inhibition.
1. C=CCn1c(=N)c(C(=O)N2CCN(C)CC2)cc2c(=O)n3cccc(C)c3nc21
2. COCCCn1c(=N)c(-c2nc3ccccc3s2)cc2c(=O)n3ccccc3nc21
3. COCCn1c(=N)c(C(=O)NCCN2CCCCC2)cc2c(=O)n3ccccc3nc21

1. inactive
2. inactive
3. inactive

State the recorded inhibition for every item in the following list.
1. COCCCn1c(=N)c(C(=O)N[C@@H](C)c2ccccc2)cc2c(=O)n3ccccc3nc21
2. N=c1c(C(=O)NC2CCCCC2)cc2c(=O)n3ccccc3nc2n1Cc1cccnc1
3. Cc1ccc2nc3c(cc(C(=O)N[C@H](C)c4ccccc4)c(=N)n3C[C@H]3CCCO3)c(=O)n2c1

1: Active; 2: inactive; 3: Active

For every item in the list below, what is its measured inhibition?
1. COCCCn1c(=N)c(C(=O)NCc2cccnc2)cc2c(=O)n3ccccc3nc21
2. Cc1cccn2c(=O)c3cc(C(=O)NCc4cccnc4)c(=N)n(CC4CCCO4)c3nc12 (centres undefined)
3. CCOC(=O)c1cc2c(=O)n3ccccc3nc2n(Cc2ccco2)c1=N
4. Cc1cccn2c(=O)c3cc(C(=O)NCc4cccnc4)c(=N)n(Cc4ccc(F)cc4)c3nc12

inactive
Active
inactive
Active

---

tgt: UniProt Q9BZP6
protocol description: Inhibition of human acidic mammalian chitinase catalytic domain overexpressed in Pichia pastoris at 10 uM using 4MU-(GlcNAc)2 as substrate after 30 mins by fluorescence based microplate reader analysis
The source made the active and inactive calls. The calls are words filed in the database; no cut-off is given here.
Write down the outcome that applies. Available outcomes: Y for active, N for inactive

Illustrative cases are given below, each with its answer.
COCCCn1c(=N)c(C(=O)NCc2ccc(F)cc2)cc2c(=O)n3ccccc3nc21    N
COCCCn1c(=N)c(C(=O)NCc2cccnc2)cc2c(=O)n3ccccc3nc21    N
C[C@@H](NC(=O)c1cc2c(=O)n3ccccc3nc2n(C[C@H]2CCCO2)c1=N)c1ccccc1    Y
COCCCn1c(=N)c(C(=O)NCc2ccc(OC)cc2)cc2c(=O)n3ccccc3nc21    N
Cc1ccc2nc3c(cc(C(=O)NCc4cccnc4)c(=N)n3C[C@H]3CCCO3)c(=O)n2c1    Y
CNC(=O)c1cc2c(=O)n3cc(C)ccc3nc2n(Cc2cccnc2)c1=N    N
COCCCn1c(=N)c(C(=O)N[C@@H](C)c2ccccc2)cc2c(=O)n3ccccc3nc21    Y

// next entry
Recorded call for COC(=O)c1cc2c(=O)n3ccccc3nc2n(Cc2cccnc2)c1=N ?
N

---

tgt: Acidic mammalian chitinase (Homo sapiens)
protocol description: Inhibition of human acidic mammalian chitinase catalytic domain overexpressed in Pichia pastoris at 10 uM using 4MU-(GlcNAc)2 as substrate after 30 mins by fluorescence based microplate reader analysis
Activity calls are given as the source filed them. No cut-off for these calls is given here.
Outcome field: choose from active, inactive

Please review the entries below; each comes with its answer.
COCCn1c(=N)c(C(=O)NCCN2CCCCC2)cc2c(=O)n3ccccc3nc21    inactive
CCOC(=O)c1cc2c(=O)n3ccccc3nc2n(Cc2ccco2)c1=N    inactive

Which outcome was assigned to N=c1c(C(=O)NCc2cccnc2)cc2c(=O)n3ccccc3nc2n1Cc1ccccc1 in this test?
active

Follow-up entry: N=c1c(C(=O)NC2CCCCC2)cc2c(=O)n3ccccc3nc2n1Cc1cccnc1
inactive

---

tgt: Chitinase B (Serratia marcescens) (UniProt P11797)
Sequence (P11797 whole entry, the tested form may be a part): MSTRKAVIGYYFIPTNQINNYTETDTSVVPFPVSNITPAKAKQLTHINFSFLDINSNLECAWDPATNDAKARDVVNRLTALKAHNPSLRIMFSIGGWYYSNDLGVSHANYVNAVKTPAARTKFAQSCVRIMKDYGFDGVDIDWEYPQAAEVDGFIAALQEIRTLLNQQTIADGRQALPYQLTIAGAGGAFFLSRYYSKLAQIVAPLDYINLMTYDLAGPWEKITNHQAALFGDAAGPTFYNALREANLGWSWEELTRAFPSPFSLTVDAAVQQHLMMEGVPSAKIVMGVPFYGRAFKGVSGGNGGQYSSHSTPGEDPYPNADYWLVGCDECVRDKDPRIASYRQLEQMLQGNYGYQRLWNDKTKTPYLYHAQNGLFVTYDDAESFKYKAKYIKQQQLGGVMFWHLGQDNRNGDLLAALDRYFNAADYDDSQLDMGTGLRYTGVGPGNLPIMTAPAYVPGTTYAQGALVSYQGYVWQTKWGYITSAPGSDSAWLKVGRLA
protocol description: Inhibition of Serratia marcescens chitinase b catalytic domain overexpressed in Escherichia coli BL21(DE3) cells at 1 uM using 4MU-(GlcNAc)2 as substrate after 30 mins by fluorescence based microplate reader analysis
Calls of active or inactive are those of the source. The calls are words filed in the database; no cut-off is given here.
I would appreciate it if you answered using one of these outcomes: True for active, False for inactive

COCCCn1c(=N)c(C(=O)NCc2ccc(F)cc2)cc2c(=O)n3ccccc3nc21    False
COCCCn1c(=N)c(C(=O)NCc2ccc(C)cc2)cc2c(=O)n3ccccc3nc21    False

How did this test come out for COCCCn1c(=N)c(C(=O)NCc2cccnc2)cc2c(=O)n3ccccc3nc21 ?
False
